assayed_system: T1, 4H2503-bN
T1 chain: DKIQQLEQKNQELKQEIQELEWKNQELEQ
assay_method_text: two-hybrid library CCNG1;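 note: natural log of median RNA to DNA barcode read ratio; higher means stronger binding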
// reported interaction score per item
assay_readout: interaction score

> print(dat)
                                     binder  numeric.result
1  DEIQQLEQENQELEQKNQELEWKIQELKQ [4H182-bN]          -0.284
2  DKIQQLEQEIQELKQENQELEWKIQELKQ [4H2134-bN]          -0.659
3  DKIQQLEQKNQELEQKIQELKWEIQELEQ [4H2473-bN]           -1.11
4  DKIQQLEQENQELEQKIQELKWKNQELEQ [4H2223-bN]            1.04
5  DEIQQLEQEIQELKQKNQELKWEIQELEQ [4H121-bN]           -1.29
6  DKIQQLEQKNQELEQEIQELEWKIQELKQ [4H2438-bN]           0.452
7  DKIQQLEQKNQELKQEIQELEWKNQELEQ [4H2503-bN]          -0.645
8  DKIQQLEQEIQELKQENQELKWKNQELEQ [4H2143-bN]          -0.374

These entries and their values trace back to paper PMC10397247.
